I'd appreciate it if you could supply PBM binding z-score values for the items below.
- System: PPARg homodimer (NR concentration 180 nM)
- Experiment: PBM binding z-score (relative to random genomic background probes); higher = stronger binding; sequences stand for … in GC…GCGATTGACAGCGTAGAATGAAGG
Give bare numbers.

TCTAGTAGGTTAGTCGGGGCATTCAGCCAACATA	1.41

# per-item lookup of PBM binding z-score; items listed below
1. AGAATGAGGTTACCAAAGATCAAGGAAACGCTTG
2. TCTTGTAGATCCACAGGAGGTTAAGAAAGATCGA
3. TGAATGAGGTTAAAGATCAGGGATCGTGGCGTCG
4. CGTCCAAGGACAAGGTCAGTGAAAGAGACTCGAA
5. ACCTCTAGGTAAAGTTCAGTGAAAGATCGATAGA

Reply:
[0.97, -0.676, 2.57, 1.03, 0.684]

Ask: Recorded PBM binding z-score of `ACTATTAGTTTACTTAGGGCAACCGATACGACGC` , please.
Reply: 0.166

* * *

I'd appreciate it if you could supply PBM binding z-score values for the items below.
- Tested on: THRa:RXRa (NR concentration 90 nM, RXRa partner concentration 90 nM)
- Experiment: PBM binding z-score (relative to random genomic background probes); higher = stronger binding; sequences stand for … in GC…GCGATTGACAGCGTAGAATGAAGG
One number for each entry.

GCTGCTAGGTCAACTGATGGACAGCTAAAGCTCG	2.72
TCTGCTATGTCAGTTGGTCAGCTAACGAGCTGCC	-0.538
TCATATAGGTAAATGCTAGGTGAAAATCCGATCT	1.24

# per-item lookup of PBM binding z-score; items listed below
1. AGAACGAGGGCACGCCGAGTTGATAGCAGAGTAG
2. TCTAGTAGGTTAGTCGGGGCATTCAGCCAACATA
3. ATCGAAAGGTCGAGGTGAGTAAAGAGAAAGGGAA
4. ACAGACAGGTGATGAAGGTAACTTAGGCTATCAT

Reply:
1.96
1.4
2.63
0.532

# per-item lookup of PBM binding z-score; items listed below
1. AGAATGAGGTTATCCGTAGATCAGGGAAGAAAGT
2. CGTCCAAGGTCAGCAGGTCAGTGAGAGCGACGTG
3. CCTACTGGGCCATTCACAGGTCATTGATCATATG
4. CCTACTGGGACATCAGGTCATTGATATCAACGTT
5. TAGCCTACGTCATTGGGCCAGTATAGTACGCATC

Reply:
1. 2.33
2. 4.01
3. 2.01
4. 3.23
5. -0.688

# per-item lookup of PBM binding z-score; items listed below
1. CCTCCTGGGCCAAGGTCATTGATCAGTCAAAGCA
2. GCAAACAGGTGAAACGCAGGTAACTCAGGGTGGC

Reply:
[3.43, 1.52]

* * *

I'd appreciate it if you could supply PBM binding z-score values for the items below.
- Tested on: RXRa DBDmut IVT, anti-RXR (DBD mutation: RXRa K156A/R161A, NR concentration 90 nM)
- Experiment: PBM binding z-score (relative to random genomic background probes); higher = stronger binding; sequences stand for … in GC…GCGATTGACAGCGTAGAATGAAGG
Numbers only.

Please review the entries below; each comes with its answer.
GCTCGGAGGACAAGGTCGGAGCTTTGTCCGTAGA	-0.395
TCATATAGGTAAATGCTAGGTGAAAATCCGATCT	1.54
CTCGAAAGGTCGTGATCAGGTGAGTATACCAAAC	1.9

# per-item lookup of PBM binding z-score; items listed below
1. TCTGCTAGGTCAACGATGGTCTGCTAATCTGCTA
2. ACTAGTCGGTCAGCTGAGGTCACACACAATTCGG
3. ATCTCTAGGTAAAGTTGAGTGAAAGATCGATAGA
4. CCTACCGGGCCATTCAGAGGTCATTGATCATATG

Reply:
0.993
1.43
-0.00419
0.918

# per-item lookup of PBM binding z-score; items listed below
1. CCTACTGAGCCACGAAAGGTCATTGATTCAGTGA
2. CAAACTAGGTCACCGGAAGGTCAAAGCCCGCATG
3. ACAGACAGGTGATGAAGGTAAATCAGGCTATCAT
4. CAGCCTAGGACAGGGCCAGTATAGGAGGAACGTT
5. TCTATTAGTTGAAGGGCGACCGACGAGTCCGTTT
6. CGTCAAAGTTCAACGAAGGTAACGTAAAGCACGC

Reply:
[1.03, 1.48, -0.384, -0.669, 1.84, 4.2]

# per-item lookup of PBM binding z-score; items listed below
1. CCTGCTAGGTCAATGATCAGCTAAAGCAGCTCGC
2. GCTCGCAGGCCATTTGGGTCACTCAATGACGGGC
3. ACAGACAGGTGTTGAAGGTAACTCAGGCTATCAT
4. CGAACTAGGTCATCCCGGACAGTGAATACATTGA
5. TAGCCTAGGTCATTCGGCCAGTATAGTACGCATC

Reply:
1. 1.82
2. 0.0952
3. -0.19
4. 2.33
5. 1.7

# per-item lookup of PBM binding z-score; items listed below
1. CCTAGTTGGTCAGGAGGTCACACACCGGATATGA
2. CCTACTGTGCCAAAAAGGTCATTGATGCCGATAA
3. TTACCAAGGTGAAAGGTCGTTTATGCACGCCTTG
4. TCGAGTAGGTTAGCGGCATTCAGAATGGCGTCGA

Reply:
1: 0.706; 2: 1.73; 3: 1.14; 4: -0.267

Origin of values: the supplement of paper PMC6555819
